# Test system: L1210 leukemia ip in BDF1 mice, survival T/C
# Test description: NCI In Vivo Anticancer Drug Screen. Data for tumor model L1210 Leukemia (intraperitoneal) in B6D2F1 (BDF1) mice
# Condition info: endpoint: mean survival time; dose: 50.0 mg/kg/injection; schedule: Q04DX003 (ip); vehicle: saline; higher = longer survival
# Procedure: The antitumor activity of compounds was measured in mice bearing transplantable tumors. Survival or tumor size were measured and the results are expressed as the measurement made in the treated group (T) divided by the measurement made in the vehicle treated control group (C). The tumor model used in this assay is L1210 Leukemia (intraperitoneal) in B6D2F1 (BDF1) mice
Inconclusive results and toxic doses are left out.
Reported T/C values for a set of compounds
Endpoint: T/C

- Compound: "Nc1nc2ncc(=O)[nH]c2c(=O)[nH]1"
  Endpoint: "T/C"
  Observed result: "103 % of control"
- Compound: "CC([NH-])C(=O)O.CC([NH-])C(=O)O.[Ni+2] (centres undefined)"
  Endpoint: "T/C"
  Observed result: "101 % of control"
- Compound: "CC1OC(=O)C(C2OC2C)=CC1O (centres undefined)"
  Endpoint: "T/C"
  Observed result: "92 % of control"
- Compound: "CC(C)NCC(O)c1cccc(O)c1 (centres undefined)"
  Endpoint: "T/C"
  Observed result: "101 % of control"
- Compound: "COc1ccc(C(=O)CBr)c(OC)c1"
  Endpoint: "T/C"
  Observed result: "93 % of control"
- Compound: "CCOC(=O)N1c2ccccc2C=CC1OCC (centres undefined)"
  Endpoint: "T/C"
  Observed result: "94 % of control"
- Compound: "C1CC2CCC[N+]3=C2C(C1)CCC3 (centres undefined)"
  Endpoint: "T/C"
  Observed result: "101 % of control"
- Compound: "COC(=O)CSc1nn2nnnc2c2ccccc12"
  Endpoint: "T/C"
  Observed result: "95 % of control"
- Compound: "CCN(CC)CC(C)OC(=O)CCN1CC1 (centres undefined)"
  Endpoint: "T/C"
  Observed result: "101 % of control"
